target: human recombinant COX-2 (Homo sapiens, UniProt P35354); assay: In vitro COX-2 inhibitory assay; type: biochemical; conditions: COX-1 IC50/COX-2 IC50
measured_metric: SI (Selectivity index = COX-1 IC50/COX-2 IC50)
Respond numerically, and do not add a unit to the figure.

The compound identified as COc1ccc(NC(=O)CSC2=N/C(=C\c3ccc(Cl)cc3)C(=O)N2c2ccccc2)cc1 [Compound 4o] registered its SI (Selectivity index = COX-1 IC50/COX-2 IC50) at 111.27

The compound identified as O=C(CSC1=N/C(=C\c2ccc(Cl)cc2)C(=O)N1c1ccccc1)Nc1ccc(Cl)cc1 [Compound 4l] registered its SI (Selectivity index = COX-1 IC50/COX-2 IC50) at 154.73

The compound identified as O=C(CSC1=N/C(=C\c2ccc(Cl)cc2)C(=O)N1c1ccccc1)Nc1ccccc1 [Compound 4j] registered its SI (Selectivity index = COX-1 IC50/COX-2 IC50) at 94.97

The compound identified as Cc1ccc(NC(=O)CSC2=N/C(=C\c3ccc(Cl)cc3)C(=O)N2c2ccccc2)cc1 [Compound 4n] registered its SI (Selectivity index = COX-1 IC50/COX-2 IC50) at 79.96

====

biological target: ovine COX-1 (Ovis aries, UniProt P05979); assay: In vitro COX-1 inhibitory assay; type: biochemical; settings: read-out: COX1, IC50; ovine COX-1; mean ± SEM
Sequence (P05979 25-600): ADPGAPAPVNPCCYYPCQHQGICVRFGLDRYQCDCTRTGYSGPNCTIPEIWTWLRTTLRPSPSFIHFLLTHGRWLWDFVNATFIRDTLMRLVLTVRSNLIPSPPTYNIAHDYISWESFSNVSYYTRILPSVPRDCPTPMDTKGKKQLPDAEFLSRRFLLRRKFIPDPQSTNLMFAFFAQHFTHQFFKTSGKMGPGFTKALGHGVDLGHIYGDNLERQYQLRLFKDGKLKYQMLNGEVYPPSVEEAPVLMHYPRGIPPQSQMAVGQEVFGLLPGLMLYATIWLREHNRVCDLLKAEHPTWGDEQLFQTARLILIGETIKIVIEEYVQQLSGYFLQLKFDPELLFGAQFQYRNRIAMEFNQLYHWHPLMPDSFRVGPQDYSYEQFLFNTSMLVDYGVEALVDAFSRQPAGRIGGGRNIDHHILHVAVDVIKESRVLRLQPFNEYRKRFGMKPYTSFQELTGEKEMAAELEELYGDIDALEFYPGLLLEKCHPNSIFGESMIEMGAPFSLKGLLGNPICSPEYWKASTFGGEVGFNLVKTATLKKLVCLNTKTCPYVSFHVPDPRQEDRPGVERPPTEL
measured_metric: IC50 (µM)
Enter your answer as a number in µM; do not include the unit.

The compound identified as Cc1ccc(NC(=O)CSC2=N/C(=C\c3ccccc3)C(=O)N2c2ccccc2)cc1 registered its IC50 at 9.12

The compound identified as COc1cc(NC(=O)CSC2=N/C(=C\c3ccccc3)C(=O)N2c2ccccc2)cc(OC)c1OC registered its IC50 at 9.83

The compound identified as O=C(CSC1=N/C(=C\c2ccccc2)C(=O)N1c1ccccc1)Nc1ccc(Br)cc1 registered its IC50 at 8.14

The compound identified as O=C(CSC1=N/C(=C\c2ccccc2)C(=O)N1c1ccccc1)Nc1ccc(Cl)cc1 registered its IC50 at 9.12

The compound identified as O=C(CSC1=N/C(=C\c2ccccc2)C(=O)N1c1ccccc1)Nc1ccc(F)cc1 registered its IC50 at 12.6

====

Would you kindly list SI (Selectivity index = COX-1 IC50/COX-2 IC50) for each of these compounds?
Biological target: human recombinant COX-2 (Homo sapiens)
Sequence (P35354 18-604): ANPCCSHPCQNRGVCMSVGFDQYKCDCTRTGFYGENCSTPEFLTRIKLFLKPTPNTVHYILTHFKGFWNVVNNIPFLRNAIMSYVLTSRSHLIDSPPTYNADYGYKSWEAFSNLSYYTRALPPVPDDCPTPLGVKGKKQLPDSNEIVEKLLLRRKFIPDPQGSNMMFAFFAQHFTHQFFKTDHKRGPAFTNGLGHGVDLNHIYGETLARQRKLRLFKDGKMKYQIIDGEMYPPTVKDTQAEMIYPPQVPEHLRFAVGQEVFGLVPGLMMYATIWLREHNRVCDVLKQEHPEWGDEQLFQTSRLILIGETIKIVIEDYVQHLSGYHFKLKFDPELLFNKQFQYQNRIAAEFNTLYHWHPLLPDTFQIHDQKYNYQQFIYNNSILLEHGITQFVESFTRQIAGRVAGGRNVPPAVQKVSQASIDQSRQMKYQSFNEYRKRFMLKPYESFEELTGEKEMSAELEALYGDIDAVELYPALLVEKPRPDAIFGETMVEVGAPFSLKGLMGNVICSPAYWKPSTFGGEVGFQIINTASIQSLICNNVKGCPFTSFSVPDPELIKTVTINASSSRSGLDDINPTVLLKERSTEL
Test: In vitro COX-2 inhibitory assay
Format: biochemical
Details: COX-1 IC50/COX-2 IC50
Respond numerically, and do not add a unit to the figure.

The compound identified as O=C(CSC1=N/C(=C\c2ccc(Cl)cc2)C(=O)N1c1ccccc1)NCc1ccccc1 registered its SI (Selectivity index = COX-1 IC50/COX-2 IC50) at 78.00

The compound identified as O=C(CSC1=N/C(=C\c2ccc(Cl)cc2)C(=O)N1c1ccccc1)Nc1ccc(F)cc1 registered its SI (Selectivity index = COX-1 IC50/COX-2 IC50) at 186.28

The compound identified as O=C(CSC1=N/C(=C\c2ccc(Cl)cc2)C(=O)N1c1ccccc1)Nc1ccc(Br)cc1 registered its SI (Selectivity index = COX-1 IC50/COX-2 IC50) at 44.12

The compound identified as COc1ccc(NC(=O)CSC2=N/C(=C\c3ccccc3)C(=O)N2c2ccccc2)cc1 registered its SI (Selectivity index = COX-1 IC50/COX-2 IC50) at 131.59

The compound identified as O=C(CSC1=N/C(=C\c2ccc(Cl)cc2)C(=O)N1c1ccccc1)Nc1cccc(C(F)(F)F)c1 registered its SI (Selectivity index = COX-1 IC50/COX-2 IC50) at 111.90

The compound identified as O=C(CSC1=N/C(=C\c2ccccc2)C(=O)N1c1ccccc1)Nc1ccccc1 registered its SI (Selectivity index = COX-1 IC50/COX-2 IC50) at 62.97

The compound identified as O=C(CSC1=N/C(=C\c2ccccc2)C(=O)N1c1ccccc1)Nc1cccc(C(F)(F)F)c1 registered its SI (Selectivity index = COX-1 IC50/COX-2 IC50) at 39.99

The compound identified as O=C(CSC1=N/C(=C\c2ccccc2)C(=O)N1c1ccccc1)NCc1ccccc1 registered its SI (Selectivity index = COX-1 IC50/COX-2 IC50) at 121.60
